assay: soluble on expression in E. coli; label from the status in PepcDB or PDB records
EXPERIMENTAL_ENDPOINT: soluble on expression in E. coli

Worked cases, answers included:
MGSDKIHHHHHHAASVTPSSALLKKSNSYYRSHARALGKKYKLAFDAQSALKKNGKAVIYVNTKDKTLNQSVKLAMAYWNKKLGKTEFTQGSKKNHTLTFGVSTAAASKSDQSDAWWTPMTKKLDVRWSYYTAEKQNIGISMTNQLNKAFYKQYADTIETKAKANLAAKGITTSDKDYLSPFNREASNVETSLPAYTTLKKDVCLVKSTLANEGRKYEYASTIAHEMGHVMGLNHSPNKQDLMYFESGNNNVYSFKKVKAGLSKYNPITTTDKNRAKLALKIYVAAH : not soluble
MAKNDFKFISYKDKVKKELDATAERGMTKVLMIIKAAAKSGAPVETGQLRDRIDYQLKAVGGKVVGIVGSPEQYAIYVEFGTGEFAENGSGRKGGWFFEGPDGEWHFTRGQKPQKFLRNAFRQNKEKVIEILGKEYGATFKGG : not soluble
MKHHHHHHGKAAGVTLGEVWKRQLNMLGKQEFERYKVSDITEVDRTAARRYLKEGRTDVGISVSRGAAKIRWLHERGYLRITGRVLDLGCGRGGWSYYAAAQKEVMSVKGYTLGIEGHEKPIHMQTLGWNIVKFKDKSNVFTMPTEPSDTLLCDIGESSSNPLVERDRTMKVLENFERWKHVNTENFCVKVLAPYHPDVIEKLERLQLRFGGGIVRVPFSRNSTHEMYYISGARNNITHMVNTTSRSLLRRMTRPSGKAIIEGDVFLPTGTRSVASEAGTIDHEALKLRVDQIKAEYSKT : soluble
MSLATVPTRSGSPRQLTTKQTGDAWEAQARRWLEGKGLRFIAANVNERGGEIDLIMREGRTTVFIEVRYRRSALYGGAAASVTRSKQHKLLQTARLWLARHNGSFDTVDCRFDVVAFTGNEVEWIKDAFNDHSEGHHHHHH : soluble
MGSDKIHHHHHHMTMTNTPRQDSPFEKPVRVRAGFSLTFDVPYATPMIFVVQPQDRLSPTGTRQRIIDQRPLAAAEGIHTYTDTHGNLIWRTVAQPGEFTIGHDLIAEIERRPDPQLPGLRKMMVEELPDDVLQYLLPSRYVDSDLVSAEAWERFGNVQGGWAQVQAVCDYLFDTCVYGYGSNSTTTASQALGSGRAVCRDFAHMGVAFCRALNIPARYVCGYMPDIDYPPDPVPMDFHAWFEAFIDGEWRTFDARHNIPRTGRVLIAQGRDASDVAFTTSFGSAKLVNMKVWADETDFDNTLDIAPNPRIF : not soluble

### Prompt Respond only with soluble on expression in E. coli recorded for `MGHHHHHHSHMSAPIVDAPAAEIVYKIISSDGVVSKMSEKAVQQSKTLSNLIENLGYTIENIETRDPIPVTNVNGKTMAKVAEWCEKHKADAIPEDNMNVLKTLTIPEWDQKFLKIEDEALFDLILASNFLDIKGLMYFGCKTVSNMAKGKTTAELREIFGINTDEQDAAEETAQRAAAEVA`
### Response soluble

### Prompt Respond only with soluble on expression in E. coli recorded for `MPPLRQFLNRLLALTIRMQNVIFERFELLLSQQIETAIANGIFEAGVETLRAERFTIESCESVYTHPDTGSVTNYLKVEQVQRNNIRTAVEMLEFAAKYQGQLMVNQKSSNAAVSIPTHSIFDCDGGVVPRVLLVRPQKETRVPVEQLESSTWQQVSAEEFVTAWSREVDELPRFTTDYLHLVTGILLPIWKILPQKNSRVFRLQTSDGQKILGRVVHASDIQTVTEQLGLKNKLEHHHHHH`
### Response soluble

---

experiment: soluble on expression in E. coli; label from the status in PepcDB or PDB records
EXPERIMENTAL_ENDPOINT: soluble on expression in E. coli

MITTGKVWKFGDDISTDEITPGRYNLTKDPKELAKIAFIEVRPDFARNVRPGDVVVAGKNFGIGSSRESAALALKALGIAGVIAESFGRIFYRNAINIGIPLLLGKTEGLKDGDLVTVNWETGEVRKGDEILMFEPLEDFLLEIVREGGILEYIRRRGDLCIR : soluble
GMMNTTTLDRYFDLFDASRTDEKAFDDLISLFSDEITFVLNGQEQHGIDAWKQFVRMVFTANQDIKHMYAGWVPSETGDTMETRWAVCGKSADGSVFTQDGTDIARLNADGKIVYLANVPDDTAMFNQYND : soluble
GMTKIRKIAVFIEETRIEAGREISPPTRKAVAVAVIENPFAGRYVEDLTELMDTGAELGALLGERCVQALGIRPEQAESYGKSAMVGENGELEHAAAILHPKLGAPLRKAVEKGAALVPSSKKMGSPGQVLDVPLGHKDAAYVRSHFDGIEVRLNDAPRANEIMVAVAVTDSGRPLPRVGGLTHDAAEGKDGLR : soluble

---

assay: soluble on expression in E. coli; label from the status in PepcDB or PDB records
EXPERIMENTAL_ENDPOINT: soluble on expression in E. coli

MFKTIDTNQKDVKLTVFSSDEKSFMVTATLVEKAGHAFLINSKFTQSDSKEIVEYLKKNNLSLDKIFIIHGDPDYYFGLESIKAVYPEAIAYATESTVEHIVHSVLGKLKVWKDALGENAPSNVVLPQVFKEKAIDFQGLTFELVGLEHYRTSLFNKELKVLIGGIDVFNEIHVFLADTSSKAAMEAWIENLKVLQALHADIIVPSHGSIEKSLNNQALTATMDYLRTAVQASEESGTSKDFVAKLEAAYPDYANKGVLELSAKVVTKEMPWGLEHHHHHH : soluble
MLSGTLFHKDVSIYSLFEELADKLNQKIEKRERLVKASRDVTYQSKKAIYLLHRAADEDLFSICSSAKEQLENIRQLICKLLLPELSAEEYFRFHSVFTIALQEYTEARLFLSYLSEGRALTLDEINAEISQQWQSLLENSEEARIY : soluble

---

experiment: soluble on expression in E. coli; label from the status in PepcDB or PDB records
EXPERIMENTAL_ENDPOINT: soluble on expression in E. coli

GSHMNIITVTLNMEKYNFLGISIVGQSNERGDGGIYIGSIMKGGAVAADGRIEPGDMLLQVNDMNFENMSNDDAVRVLRDIVHKPGPIVLTVAKSGGGGEIVLWSDIP : soluble
MGSDKIHHHHHHMKPIIIFFSLFLIPLFADDLKSGFGEEYYKLDIDQKRQIFFIKMNEMFDQSFKKIEQERAFIEAFFKDAYKTGFRTSNQINLEKLITIKNKYRIENLYDFAEYKKRIQKIPKSMGIAQALVESATGTSRFAREANNLFGEWTWGEKGLIPDLRHPDKKHKIKIFDSLQDSVDSYVLNLNRHFAYEKFRDARAKFESEGKEITGLEAIKTLDSYSERKGYYINLITKIIKRYNLEKYDTNSNNT : not soluble
MSFFDELKTSLEEAVEIKQGLKEPARVTRYEIADVKAIREQLNVSQSEMAKALGTSVDTIKSWESKRRNPTGLAAKVLATIKENPAFFRELASH : not soluble
MSLSVLNGYQLIISDVDGVIVREGDPIWENIQALRNIQNNGVKIIFVTNNSGFSRILLSRQLSYLGLKVTPDMIITSGLAAAIYMKEKLNVKSVFAVGEEGLIEELKNHGFLVFSSAESERILPDAVVMGLDRLSTYDKLSLAMRCISKGSKFIVTNMDRLWPAKDGLKLGAGALASSIIYALRRDPDFIAGKPNTWIVEIAMRISNVKKLDKILVIGDQIETDIQMGYNIGADTALVLTGISNVDDVDRSNVKPKYVVNTLLDLLEGHHHHHH : soluble

---

assay: soluble on expression in E. coli; label from the status in PepcDB or PDB records
EXPERIMENTAL_ENDPOINT: soluble on expression in E. coli

Worked cases, answers included:
IPTKFVQKVTITKEGKKRVAPQLLTTLSA : soluble
MGSDKIHHHHHHMNYDDPKKKVGRNIKRLRLKAGIKSQAALAELCGWKSQSRVGNYEAGTRAVSAIDAETLAKVLNVTPAEILYGENNKDDDFVSMPSAQYSSGPYEEEDPFQLFKPKQELQNAEWHAGFELWDGDTPLRDDEVALPFYREVELAAGSGSTFVQENGGCKLRFAKSTLKKSRVEPSNAACVTVSGNSMLPVLRHGTTVGVDTSKKSIIDGEMYAIDHDGMLRVKMLYRTPGGGIRIKSYNNDEFPDEFIPPEKASDIKIIGWVFWWSVLNVWNN : not soluble
EFSGSFNRQFKLNKPVIPVNTEYVTRKEFNEYKDSNDQRLTKIENKVDKLEIKVDKLEKKVDKLEVKVDKLVETVNAQGEDLNNFKVEVRGTLQSQGETLQLILQTLQGMSKRLDSVEGRLDSMDGRLDSMETRLDKID : soluble
AIACTGCVQKQYPDRGNTCLENGSYLMNFVGCANCHQRDFVLISDRTMVNEDEEEIVTYLHMCKNCEHVIARHEYTFTVVDDYQEYTMLCMLCGKAEDSISVLPDDPRQTAPLF : soluble

### Prompt Respond only with soluble on expression in E. coli recorded for `MKRIRLWGLMAGLLLLLVGCGRAETTGVTKPVTTQGHRYIPTLFFHGWGSSYHAETHMADAIVKAGKTQTIVRAMVAKNGTVTLKGHFRSGDYRPIVEVNFANNRSSDYPTVGRWAKNVVVALQRTYGITSFNMVGHSMGNMAITYYLLANAQNKRLPQLRQQVAIAGHFNGILGMDDSPNQMTLNAAGRPNKLRPAYRQLLGLRRVYPRQQVRVLNIYGDKGDGTHSDGSVSNASSRSLRYLVAARARSYREVKLTGKHAQHSQLHENAQVDRLLIDFLWPTH`
### Response not soluble
